- System: Mycobacterium tuberculosis
- Assay details: Antimycobacterial activity against Streptomycin-resistant Mycobacterium tuberculosis H37Rv ATCC 35820 assessed as inhibition of bacterial growth incubated for 48 hrs by resazurin microtitre assay
- Type: functional

| Molecule | Value prefix | MIC [µg/mL] |
| --- | --- | --- |
| O=C(/C=C/c1ccc([N+](=O)[O-])o1)c1ccc(Nc2nc3cc(Cl)ccc3o2)cc1 | = | 0.06 |
| Cc1ccc2oc(Nc3ccc(C(=O)/C=C/c4ccc([N+](=O)[O-])o4)cc3)nc2c1 | = | 0.06 |
| O=C(/C=C/c1ccc([N+](=O)[O-])o1)c1cccc(Nc2nc3ccccc3o2)c1 | = | 0.12 |
| CN[C@@H]1[C@H](O[C@H]2[C@H](O[C@H]3[C@H](O)[C@@H](O)[C@H](N=C(N)N)[C@@H](O)[C@@H]3N=C(N)N)O[C@@H](C)[C@]2(O)C=O)O[C@@H](CO)[C@H](O)[C@H]1O [STREPTOMYCIN] | > | 64 |
| O=C(/C=C/c1ccc([N+](=O)[O-])o1)c1ccc(Nc2nc3ccccc3o2)cc1 | = | 0.12 |
| NNC(=O)c1ccncc1 [ISONIAZID] | = | 0.03 |
| CC[C@@H](CO)NCCN[C@@H](CC)CO [ETHAMBUTOL] | = | 1 |
| CO[C@H]1/C=C/O[C@@]2(C)Oc3c(C)c(O)c4c(O)c(c(/C=N/N5CCN(C)CC5)c(O)c4c3C2=O)NC(=O)/C(C)=C\C=C\[C@H](C)[C@H](O)[C@@H](C)[C@@H](O)[C@@H](C)[C@H](OC(C)=O)[C@@H]1C [RIFAMPIN] | = | 0.03 |
| O=C(/C=C/c1ccc([N+](=O)[O-])o1)c1ccc(Nc2nc3cc([N+](=O)[O-])ccc3o2)cc1 | = | 0.12 |

----------
Listed next: entries and their corresponding MIC.
- Test system: Mycobacterium tuberculosis
- Assay details: Antimycobacterial activity against rifampicin-resistant Mycobacterium tuberculosis H37Rv ATCC 35838 assessed as inhibition of bacterial growth incubated for 48 hrs by resazurin microtitre assay
- Assay type: functional
Measured endpoint: MIC

| Molecule smiles | Measured endpoint | Assay value |
| --- | --- | --- |
| CO[C@H]1/C=C/O[C@@]2(C)Oc3c(C)c(O)c4c(O)c(c(/C=N/N5CCN(C)CC5)c(O)c4c3C2=O)NC(=O)/C(C)=C\C=C\[C@H](C)[C@H](O)[C@@H](C)[C@@H](O)[C@@H](C)[C@H](OC(C)=O)[C@@H]1C | MIC | 64 µg/mL |
| O=C(/C=C/c1ccc([N+](=O)[O-])o1)c1ccc(Nc2nc3cc(Cl)ccc3o2)cc1 | MIC | 0.03 µg/mL |
| O=C(/C=C/c1ccc([N+](=O)[O-])o1)c1cccc(Nc2nc3ccccc3o2)c1 | MIC | 0.03 µg/mL |
| Cc1ccc2oc(Nc3ccc(C(=O)/C=C/c4ccc([N+](=O)[O-])o4)cc3)nc2c1 | MIC | 0.03 µg/mL |
| NNC(=O)c1ccncc1 | MIC | 0.03 µg/mL |
| CN[C@@H]1[C@H](O[C@H]2[C@H](O[C@H]3[C@H](O)[C@@H](O)[C@H](N=C(N)N)[C@@H](O)[C@@H]3N=C(N)N)O[C@@H](C)[C@]2(O)C=O)O[C@@H](CO)[C@H](O)[C@H]1O | MIC | 1 µg/mL |
| O=C(/C=C/c1ccc([N+](=O)[O-])o1)c1ccc(Nc2nc3ccccc3o2)cc1 | MIC | 0.03 µg/mL |
| CC[C@@H](CO)NCCN[C@@H](CC)CO | MIC | 1 µg/mL |
| O=C(/C=C/c1ccc([N+](=O)[O-])o1)c1ccc(Nc2nc3cc([N+](=O)[O-])ccc3o2)cc1 | MIC | 0.03 µg/mL |
